Measured values drawn from PubChem BioAssay AID248 for this set.

# System: L1210 leukemia ip in BDF1 mice, survival T/C
# protocol notes: NCI In Vivo Anticancer Drug Screen. Data for tumor model L1210 Leukemia (intraperitoneal) in B6D2F1 (BDF1) mice
# conditions used: endpoint: mean survival time; dose: 200.0 mg/kg/injection; schedule: Q04DX002 (ip); vehicle: Klucel (hydroxypropylcellulose) (HPC); higher = longer survival
Inconclusive results and toxic doses are left out.
endpoint name: T/C

{"columns": ["molecule", "endpoint name", "reported measurement"],
 "data": [
  ["O=C(Nc1cccc([N+](=O)[O-])c1)Nc1cccc(C(F)(F)F)c1", "T/C", "99 % of control"]
]}

Exercise: Given the molecule CCCCCC(Oc1ccc(Cl)cc1C)C(=O)OCC (configuration not stated) , write its reported T/C.
Solution: 87 % of control

Exercise: Given the molecule `C=CCCCCCCCCC(=O)Nc1ccc(Cl)cc1C(=O)c1ccccc1` , write its reported T/C.
Solution: 92 % of control

Exercise: Given the molecule CC1CN(CC2CCCCCCCCCCC2=O)CC(C)O1 (configuration not stated) , write its reported T/C.
Solution: 90 % of control

Exercise: Given the molecule `O=C(Nc1cccc(Cl)c1Cl)Oc1cccc2ccccc12` , write its reported T/C.
Solution: 108 % of control

Exercise: Given the molecule `CNCC(=O)Nc1ccc(NC(=O)CNC)cc1` , write its reported T/C.
Solution: 104 % of control

Exercise: Given the molecule `Cc1cc(C)c(NC(C)C)c(C)c1N` , write its reported T/C.
Solution: 95 % of control

Exercise: Given the molecule `C=CCc1cc(CN2CCOCC2)c(O)c(OC)c1` , write its reported T/C.
Solution: 89 % of control

Exercise: Given the molecule `O=C(Nc1cccc(Cl)c1)Oc1ccc(Cl)cc1Cc1ccccc1` , write its reported T/C.
Solution: 102 % of control

Exercise: Given the molecule `O=C(NSN1CCOCC1)c1ccccc1` , write its reported T/C.
Solution: 98 % of control

Exercise: Given the molecule `CCOC(=O)c1cc2nc(C(C)C)n(Cc3ccccc3)c2cc(C(=O)OCC)c1=O` , write its reported T/C.
Solution: 96 % of control

Exercise: Given the molecule NNC(=O)C(Cc1cnc[nH]1)NC(=O)OCc1ccccc1 (configuration not stated) , write its reported T/C.
Solution: 90 % of control
